Tested on: Xanthium strumarium
Assay: Herbicidal activity, foliar application of single compounds (Test Examples 1 to 5)
Type: in vivo
Parameters: key: 0 means the state where the plants are as sound as before the application of the active compound; 1, 2, 3 and 4 mean varying degrees of the enfeebled state of the plants between 0 and 5; 1, 2, 3 and 4 mean varying degrees of the enfeebled state of the plants between 0 and 5; 1, 2, 3 and 4 mean varying degrees of the enfeebled state of the plants between 0 and 5; 1, 2, 3 and 4 mean varying degrees of the enfeebled state of the plants between 0 and 5; 5 is the state where the plants are withered or killed by application of the active compound
Conditions: Rate of Application 0.031 kg/ha; 3 weeks after application
parameter: herbicidal activity, Plants i

[[record]]
compound = "COC(=O)C(C)Oc1cc(Oc2ccc(C(F)(F)F)cc2Cl)ccc1C#N (racemic) [Racemic (1), reference compound]"
parameter = "herbicidal activity, Plants i"
endpointvalue = 5

[[record]]
compound = "CCOC(=O)C(C)Oc1cc(Oc2ccc(C(F)(F)F)cc2Cl)ccc1C#N (stereo not drawn)"
parameter = "herbicidal activity, Plants i"
endpointvalue = 5

[[record]]
compound = "COC(=O)[C@H](C)Oc1cc(Oc2ccc(C(F)(F)F)cc2Cl)ccc1C#N [S-enantiomer (1), reference compound]"
parameter = "herbicidal activity, Plants i"
endpointvalue = 0

[[record]]
compound = "CCOC(=O)C(C)Oc1cc(Oc2ncc(C(F)(F)F)cc2Cl)ccc1C#N (stereo not drawn)"
parameter = "herbicidal activity, Plants i"
endpointvalue = 5

[[record]]
compound = "CCCCOC(=O)C(C)Oc1cc(Oc2ccc(C(F)(F)F)cc2Cl)ccc1C#N (stereo not drawn)"
parameter = "herbicidal activity, Plants i"
endpointvalue = 5

[[record]]
compound = "COC(=O)C(C)Oc1cc(Oc2ccc(C(F)(F)F)cc2Cl)ccc1C#N (stereo not drawn) [Compound (1)]"
parameter = "herbicidal activity, Plants i"
endpointvalue = 5


====

Test system: Chenopodium album var. centrorubrum
Experiment: Herbicidal activity, foliar application of single compounds (Test Examples 1 to 5)
Type: in vivo
Set-up: key: 0 means the state where the plants are as sound as before the application of the active compound; 1, 2, 3 and 4 mean varying degrees of the enfeebled state of the plants between 0 and 5; 1, 2, 3 and 4 mean varying degrees of the enfeebled state of the plants between 0 and 5; 1, 2, 3 and 4 mean varying degrees of the enfeebled state of the plants between 0 and 5; 1, 2, 3 and 4 mean varying degrees of the enfeebled state of the plants between 0 and 5; 5 is the state where the plants are withered or killed by application of the active compound
Conditions: Rate of Application 0.031 kg/ha; 3 weeks after application
Procedure: In these examples, all parts means parts by weight, unless otherwise noted. The herbicidal activity was evaluated on a scale of 6 degrees. In other words, 0 means the state where the plants are as sound as before the application of the active compound, while 5 is the state where the plants are withered or killed by application of the active compound, and 1, 2, 3 and 4 mean varying degrees of the enfeebled state of the plants between 0 and 5. […]
parameter: herbicidal activity, Plants d

[[record]]
molecule = "CCCCOC(=O)C(C)Oc1cc(Oc2ccc(C(F)(F)F)cc2Cl)ccc1C#N (stereo not drawn)"
endpointvalue = 5

[[record]]
molecule = "CCOC(=O)C(C)Oc1cc(Oc2ccc(C(F)(F)F)cc2Cl)ccc1C#N (stereo not drawn)"
endpointvalue = 5

[[record]]
molecule = "COC(=O)C(C)Oc1cc(Oc2ccc(C(F)(F)F)cc2Cl)ccc1C#N (stereo not drawn) [Compound (1)]"
endpointvalue = 5

[[record]]
molecule = "COC(=O)C(C)Oc1cc(Oc2ccc(C(F)(F)F)cc2Cl)ccc1C#N (racemic) [Racemic (1), reference compound]"
endpointvalue = 5

[[record]]
molecule = "CCOC(=O)C(C)Oc1cc(Oc2ncc(C(F)(F)F)cc2Cl)ccc1C#N (stereo not drawn)"
endpointvalue = 5

[[record]]
molecule = "COC(=O)[C@H](C)Oc1cc(Oc2ccc(C(F)(F)F)cc2Cl)ccc1C#N [S-enantiomer (1), reference compound]"
endpointvalue = 1

